Reference source for all entries: PubChem BioAssay (NCI)

Catalogue of TGI readings, one per entry.
System: A549 NSCLC
Assay: NCI tumour cell line growth inhibition, 48 h
reported_endpoint: TGI

> print(dat)
                                   molecule  reported.endpoint    result
1  COc1ccc(CC(C)NCC(O)c2ccc(O)c(NC=O)c2)cc1 (stereo not given)                TGI  > 100 µM
2  CCN(CC)CC(C(=O)Nc1c(C)cccc1C)/C(C)=N\NC(=S)NN (stereo not given)                TGI  > 100 µM
3  CCOc1ccc2c(c1)[n+]([O-])c(-c1ccccc1)c(N)[n+]2[O-]                TGI  > 100 µM
4                     C#CCOC(=O)C=[N+]=[N-]                TGI   > 10 µM
5  COc1cc(/C=C2\CC3C4CC=C5C[C@@H](O)CC[C@]5(C)C4CC[C@]3(C)\C2=N\O)cc(OC)c1OC (stereo not given in full)                TGI  > 100 µM

###

Tested on: NCI/ADR-RES ovarian
Assay: NCI tumour cell line growth inhibition, 48 h
Catalogue of TGI readings, one per entry.
reported_endpoint: TGI

> print(dat)
                                        smi    result
1        CCOP(=O)(OCC)/C(C#N)=C/c1nc[nH]c1C  > 100 µM
2  CN1CCN(c2cc(F)c(NC3=C(Cl)C(=O)c4ncccc4C3=O)c(F)c2)CC1   6.53 µM
3  C=C(C)[C@@H]1CC[C@]2(C(=O)OC)CC[C@]3(C)[C@H](CC[C@@H]4[C@@](C)(CCc5nn[nH]n5)[C@H](C(=C)C)CC[C@]43C)[C@@H]12   73.2 µM

###

Test system: NCI/ADR-RES ovarian
Test: NCI tumour cell line growth inhibition, 48 h
reported_endpoint: TGI

compound	result
CCOC(=O)c1sc2nc(=S)[nH]c(NC(N)=S)c2c1C	29.9 µM
COC(=O)c1sc2nc(Nc3ccccc3)c(=Nc3ccccc3)sc2c1C	> 100 µM
Cc1ccc(N=NC(=Nc2ccc(F)cc2)c2ccc(N(CCC#N)CCC#N)cc2)cc1	> 100 µM
CCN(CC)C1=Nc2ccccc2-n2ccnc2C1	> 100 µM
C[C@]12CC[C@H]3[C@@H](CC=C4C[C@@H](N5CCCC5)CC[C@@]43C)[C@@H]1C/C(=C\c1ccc([N+](=O)[O-])cc1)[C@@H]2O	43.4 µM
C[C@]12CCC(=O)C=C1CC[C@@H]1[C@@H]2CC[C@]2(C)C(=O)/C(=C/c3ccc([N+](=O)[O-])cc3)C[C@@H]12	> 100 µM
CC(=O)Oc1ccc2c(c1)O/C(=C\c1ccc(N(C)C)cc1)C2=O	> 100 µM
O=C1O/C(=C(\Br)c2ccc([N+](=O)[O-])cc2)c2ccccc21	> 100 µM
CCN(CC)CCN1C(=O)C2C3C(C)=CC(OC(C)=O)(CC3C)C2C1=O (centres undefined)	> 100 µM
CN(C)CCNc1c(O)c2c(c(O)c1Cl)C(=O)C=CC2=O	7.08 µM
CC(NC(=O)c1ccc(Cl)c(Cl)c1)c1ccc(-c2ccccc2)cc1 (centres undefined)	> 100 µM
CN(C(=O)Cc1cc(Cl)c(Cl)cc1NC(=O)CCCN)[C@H]1CCCC[C@@H]1N1CCCC1	> 100 µM
Cc1ccc(S(=O)(=O)N(CC(O)COc2ccccc2)c2c(F)c(F)c(F)c(F)c2F)cc1 (centres undefined)	35.1 µM
COc1cc(-c2csc(NC(=O)Nc3ccc(Cl)cc3)n2)cc(OC)c1OC	8.65 µM
COc1cccc2c1C(=O)c1c(O)c3c(c(O)c1C2=O)C[C@@](O)(/C(C)=N/NC(=O)c1cccc([N+](=O)[O-])c1)C[C@@H]3OC1CC(N)C(O)C(C)O1 (some centres undefined)	35.8 µM
COc1ccc2c(c1)c(-c1ccc(-c3cn(C)c4ccc(OC)cc34)s1)cn2C	> 100 µM
CCN(CC)c1c(-c2c(OC(C)C)c(=O)c2=O)c(=O)n2ccsc2c1OC(C)=O	> 100 µM
CC(=O)Nc1ccc(CC[C@H]2CCC/C=C/[C@@H]3C[C@H](O)C[C@H]3[C@H](O)/C=C/C(=O)O2)cc1	> 100 µM
O=C(O)CSC1=NCCN1	> 100 µM
